# STUDY SYSTEM: human melanocortin-4 receptor (recombinant hMC4-R) (human, UniProt P32245 1-332)
# Sequence (P32245 whole entry): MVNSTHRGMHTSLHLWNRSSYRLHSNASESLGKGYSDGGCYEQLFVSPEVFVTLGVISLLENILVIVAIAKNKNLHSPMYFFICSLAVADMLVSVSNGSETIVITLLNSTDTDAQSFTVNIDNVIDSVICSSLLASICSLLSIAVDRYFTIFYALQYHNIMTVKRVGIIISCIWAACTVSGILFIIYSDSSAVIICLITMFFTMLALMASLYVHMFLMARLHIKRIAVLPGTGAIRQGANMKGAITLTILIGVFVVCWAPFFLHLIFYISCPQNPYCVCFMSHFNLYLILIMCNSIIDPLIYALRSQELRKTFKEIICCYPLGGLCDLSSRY
# METHOD NOTES: cell-based or functional assay
Bridge positions count the residues as written; N and C are the ends. Square brackets hold non-standard residues; d marks the D form. * marks the point of attachment. Orn = NCCC[C@H](N)C(=O)O; NHcPr = C1CC1N*
ENDPOINT: Ec50 (nM), cAMP
Use nM as the unit, but write only the number.

BINDER: Ac-RDN[dF]RWK-OH (lactam 2-7, also called Peptide Structure (Asp...Lys) in the row of No. 20) [Asp...Lys analog of peptide No. 20: Ac-Arg-cyclo(Asp-Asn-D-Phe-Arg-Trp-Lys)-OH]
UNITS OF MEASURE: nM
Ec50 (nM), cAMP: 81

What value of Ec50 (nM), cAMP has been reported for the following binder? Ac-RDQ[dF]RWK-NHcPr (lactam 2-7, also called Peptide Structure (Asp...Lys) in the row of No. 19) [Asp...Lys analog of peptide No. 19: Ac-Arg-cyclo(Asp-Gln-D-Phe-Arg-Trp-Lys)-NH-cycProp]
9

What value of Ec50 (nM), cAMP has been reported for the following binder? Ac-EQ[dF]RW[Orn]-NH2 (lactam 1-6; SMILES CC(=O)N[C@H]1CCC(=O)NCCC[C@@H](C(N)=O)NC(=O)[C@H](Cc2c[nH]c3ccccc23)NC(=O)[C@H](CCCNC(=N)N)NC(=O)[C@@H](Cc2ccccc2)NC(=O)[C@H](CCC(N)=O)NC1=O) [Peptide No. 21: Ac-cyclo(Glu-Gln-D-Phe-Arg-Trp-Orn)-NH2]
26
